# Test system: KRAS PDC multicell spheroid viability;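 further: drug exposure lasted seven days; 100% = DMSO vehicle wells and lower means fewer viable cells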
# experimental_protocol: Anticancer human tumor 521955-158-R6-J3-PDC patient-derived pancreatic carcinoma cell line growth inhibition [KRAS2]
# condition_label: second compound 3.16 µM; first compound 0.316 µM; active compounds read low
measured_property: viability, T/C

Request: Find the measured viability, T/C of CCN1CCN(Cc2ccc(Nc3ncc(F)c(-c4cc(F)c5nc(C)n(C(C)C)c5c4)n3)nc2)CC1 + C=CC(=O)N1CCN(c2nc(=O)n(-c3c(C)ccnc3C(C)C)c3nc(-c4c(O)cccc4F)c(F)cc23)C(C)C1 and report it.
Result: 109%

Request: Find the measured viability, T/C of CC(=O)OC12COC1CC(O)C1(C)C(=O)C(O)C3=C(C)C(OC(=O)C(O)C(NC(=O)OC(C)(C)C)c4ccccc4)CC(O)(C(OC(=O)c4ccccc4)C21)C3(C)C (configuration not stated) + C=CC(=O)N1CCN(c2nc(OCC3CCCN3C)nc3c2CCN(c2cccc4cccc(C)c24)C3)CC1CC#N and report it.
Result: 74.3%

Numbers sourced from PubChem BioAssay AID1963864.
